Assay: compound binding in COS7 lysate, probe aLAP1, primary screen, cell lysate, small-molecule microarray (AID 1124);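 further: lysate comes from COS7 cells expressing LAP1 and is applied at 0.3 µg/mL; score merges spot fluorescence near 667 nm with signal-to-noise over triplicate slides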
Conditions: probe aLAP1, fluorescence, higher = more signal
Binary call on composite z-score: Condition met from 0.2 upward, Condition not met beneath that.

Some solved cases for reference:
[[record]]
molecule = "CC1C2C(CCCO)=CC(C3C(=O)N(C(N)=O)C(=O)C23)N1Cc1cccc(OC(F)(F)F)c1 (configuration not stated)"
label = "Condition not met"

[[record]]
molecule = "COC(=O)[C@@]1(Cc2ccccc2)[C@H]2c3cc(C(=O)N(C)C)n(Cc4nc5ccccc5[nH]4)c3C[C@H]2CN1C(=O)c1ccccc1"
label = "Condition met"

[[record]]
molecule = "C=CC[C@@]1(C(=O)NCCCOC)N=C(c2ccc(OCCCO)cc2)O[C@@H]1c1ccccc1CN=[N+]=[N-]"
label = "Condition not met"


## Task composite z-score >= 0.2 for `[N-]=[N+]=NCc1ccccc1C[C@@]1(C(=O)NCCN2CCOCC2)N=C(c2ccc(OCCCO)cc2)O[C@@H]1c1ccccc1` ?
## Result Condition not met

## Task Can `C=CCN1C(=O)[C@@]2(O[C@@H](CCO)[C@H]([Si](C)(C)c3ccc(OC)cc3)[C@H]2C)c2cc(N3CCCCC3=O)ccc21` be said to have composite z-score at or above 0.2?
## Result Condition not met

## Task Answer whether composite z-score of `C[N+](C)(C)CCCC[C@@H]1NC(=O)[C@H]2C[C@@H](C(=O)NCCCCCN)[C@@H](c3ccc(O)cc3)N2C1=O` is greater than or equal to 0.2.
## Result Condition met

* * *

Test system: Wnt5a (protein binding on small-molecule microarray)
Assay: Wnt5a binders on small-molecule microarray, primary screen, biophysical, 635/667 nm fluorescence (AID 1142);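 further: fluorescence read at 667 nm with signal to noise per printed feature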
Conditions: 635 nm fluorescence, higher = more signal
Please mark satisfied if the recorded composite z-score is equal to or greater than 0.3, and not satisfied if it falls below.

[[record]]
compound = "COCCOC(=O)N1C(=O)[C@@]2(c3cc(C#CC4=CCCCC4)ccc31)[C@H](C(=O)N1CCCCCCC1)[C@H]1C(=O)O[C@H](c3ccccc3)[C@H](c3ccccc3)N1[C@@H]2c1ccccc1OCCO"
label = "satisfied"

[[record]]
compound = "COc1ccc(C(=O)Nc2ccc(CN3C(=O)[C@]4(O[C@H](CC(=O)N(CCO)Cc5ccccc5)[C@@H]([Si](C)(C)c5ccc(OC)cc5)[C@@H]4C)c4ccccc43)cc2)cc1"
label = "satisfied"

[[record]]
compound = "CCOC(=O)C1=CC[C@@H](c2ccccc2)N(S(=O)(=O)c2ccc(C)cc2)[C@@H]1C#N"
label = "not satisfied"

[[record]]
compound = "Cc1cccc([C@H]2C[C@H]3C(Br)=C[C@@]2(CO)C(=O)[C@]32CO2)c1"
label = "not satisfied"

[[record]]
compound = "CCCNC(=O)[C@@]1(Sc2ccc(C)cc2)CC(=O)N(Cc2cc(C(F)(F)F)cc(C(F)(F)F)c2)[C@@H]1c1ccc(CO)cc1"
label = "not satisfied"


Kindly review the next compound as well.
## Task Dear colleague, could you confirm whether `COc1ccc(CCNC(=O)[C@@]2(c3ccc([N+](=O)[O-])cc3)CC(=O)N(C3CCCCC3)[C@@H]2c2ccc(CO)cc2I)cc1` has composite z-score at or above 0.3?
## Result satisfied

* * *

Tested on: Fibrinogen (Alexa647-labelled)
Assay: fibrinogen binders on compound microarrays, profiling panel, artefact control for SMM control-protein annotation, biochemical, small-molecule microarray, 635/667 nm fluorescence (AID 1131);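 further: z-score merges 667 nm fluorescence with per-spot signal-to-noise over triplicate slides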
Conditions: fibrinogen-A647 binding fluorescence, higher = more signal
Lab note: compare composite z-score against 0.06. Equal or greater, write Condition met. Smaller, write Condition not met.

As a guide, the following entries are already answered.
[[record]]
compound = "O=C1C2C=CC(C(O)C3CC=CCC3)N(Nc3ccc([N+](=O)[O-])cc3)C2C(=O)N1c1ccccc1 (stereo not given)"
assayed_target = "Fibrinogen (Alexa647-labelled)"
label = "Condition met"

[[record]]
compound = "CCOC(=O)C[C@H]1[C@H](OC(=O)c2ccccc2-c2ccccc2)[C@@H](NC(=O)CC(C)C)c2cc(OCCCO)ccc2N1C(=O)c1ccccc1"
assayed_target = "Fibrinogen (Alexa647-labelled)"
label = "Condition met"

[[record]]
compound = "C=CCNC(=O)[C@H]1[C@@H]2C(=O)O[C@@H](c3ccccc3)[C@@H](c3ccccc3)N2[C@@H](c2ccc(O)cc2)[C@]12C(=O)Nc1ccc(C#CCC(C(=O)OC)C(=O)OC)cc12"
assayed_target = "Fibrinogen (Alexa647-labelled)"
label = "Condition not met"

[[record]]
compound = "CC(C)C[C@@H]1NC(=O)[C@@H]2C[C@H](C(=O)NCCCCCCNC(=O)CS)[C@H](c3ccc(O)cc3)N2C1=O"
assayed_target = "Fibrinogen (Alexa647-labelled)"
label = "Condition met"

[[record]]
compound = "CN(C)CCCCCCNC(=O)[C@@H]1C[C@@H]2C(=O)N[C@@H](CCCC[N+](C)(C)C)C(=O)N2[C@@H]1c1cccc(OCCO)c1"
assayed_target = "Fibrinogen (Alexa647-labelled)"
label = "Condition met"


## Task Confirm if composite z-score reported for the compound `CC(C)C[C@@H]1NC(=O)[C@H]2C[C@@H](C(=O)O)[C@@H](c3cccc(OCCO)c3)N2C1=O` is 0.06 or above.
## Result Condition met

## Task Determine whether measured composite z-score meets or exceeds 0.06 for `Cc1ccc(N2C(=O)c3ccccc3[C@@H](C(=O)NCCN3CCOCC3)[C@@H]2c2ccc(CO)cc2)nc1`
## Result Condition not met

## Task Form field: composite z-score at least 0.06? Entry: `COCCCNC(=O)[C@@]1(Cc2ccccc2I)c2ccccc2C(=O)N(Cc2ccccc2C(F)(F)F)[C@H]1c1ccc(CO)cc1`
## Result Condition not met

## Task Assess whether reported composite z-score for `Cc1ccc(S[C@]2(C(=O)NCc3ccccc3)CC(=O)N(Cc3ccccc3C(F)(F)F)[C@@H]2c2ccc(CO)cc2I)cc1` sits at 0.06 or higher.
## Result Condition not met

* * *

Tested on: PRMT1 (protein arginine N-methyltransferase 1)
Assay: PRMT1 binders on small-molecule microarrays, primary screen, biochemical, small-molecule microarray, 635 nm fluorescence (AID 1088);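 further: binding of Prmt1 protein to compounds spotted on small-molecule microarray slides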
Conditions: small-molecule microarray binding, higher = more signal
Recorded endpoint: composite z-score

[[record]]
molecule = "COCCCNC(=O)[C@]1(Cc2ccccc2CN=[N+]=[N-])N=C(c2ccc(OCCCO)cc2)O[C@@H]1c1ccccc1N=[N+]=[N-]"
val = 0.772

[[record]]
molecule = "COCCOC(=O)N1C(=O)[C@@]2(c3cc(C#CCCO)ccc31)[C@H](C(=O)N1CCN(c3ncccn3)CC1)[C@H]1C(=O)O[C@H](c3ccccc3)[C@H](c3ccccc3)N1[C@@H]2c1ccc(OCCO)cc1"
val = 1.53

[[record]]
molecule = "C=C(C(=O)CC[C@H](OC(=O)c1ccccc1-c1ccccc1C(=O)O)c1ccc(OCCO)cc1)C(C)C"
val = 1.51

[[record]]
molecule = "CCc1cccc(NC(=O)O[C@H]2[C@H](OC(=O)Nc3ccccc3-c3ccccc3)[C@H](OC(=O)Nc3ccccc3-c3ccccc3)[C@@H](OC)O[C@@H]2CO)c1"
val = 1.55


I looked up `COC(=O)[C@@]1(Cc2ccc(F)cc2)[C@H]2c3cc(C(=O)N4CCCC4)n(CCSCCO)c3C[C@H]2CN1C(=O)c1ccccc1` and its composite z-score for PRMT1 (protein arginine N-methyltransferase 1) was -0.665

Entry C[C@]12C(=O)N(CCO)[C@@H]3C(=O)N(c4ccc(Cl)cc4)CC=CC31O[C@@H]1/C=C\CCCOC(=O)C12 (some centres undefined) , tested on PRMT1 (protein arginine N-methyltransferase 1), has a reported composite z-score of -0.0919

Tested on PRMT1 (protein arginine N-methyltransferase 1), the item `COc1ccc(CCNC(=O)[C@@H]2c3ccccc3C(=O)N(C(C)C)[C@H]2c2ccc(CO)cc2)cc1` showed composite z-score equal to -0.592

* * *

Experiment: basal 3T3-L1 adipocyte mitochondrial potential changes, profiling panel, cell-based, JC-1 fluorescence, 3T3-L1 adipocytes, 24 h, 100 nL compound (AID 1168); further: test concentration not given here
Settings: JC-1 mitochondrial fluorescence, higher = more signal, called active from +8 up or from −8 down
Reported z-score values follow for various compounds
Lab note: jot down the number only; don't add units.

[[record]]
compound = "COc1cc2c(cc1O)C(C)N(Cc1sc3ccccc3c1Cl)CC2 (stereo not drawn)"
val = -0.632

[[record]]
compound = "[N-]=[N+]=NCc1ccccc1[C@H]1OC(c2ccc(OCCCO)cc2)=N[C@@]1(Cc1ccccc1N=[N+]=[N-])C(=O)O"
val = 0.0914

[[record]]
compound = "O=C(c1ccccc1)N1Cc2ccccc2C[C@@]2(N=C(c3ccc(OCCCO)cc3)O[C@H]2c2ccccc2)C1=O"
val = 0.471


Reported z-score of `CN(C)C(=O)[C@]1(CCS(=O)(=O)c2ccccc2)N=C(c2ccc(OCCCO)cc2)O[C@@H]1c1ccccc1CN=[N+]=[N-]` : -0.197

// z-score value for `C=C[C@H](C)[C@@H](OC(=O)Nc1ccc(SC)cc1)c1ccc(OCCO)cc1` : -0.168

get_value(item= `CCCCC(=C=CC[C@H](O)c1ccccc1OCCO)CCO` , readout=z-score) returns 0.101

Per the records, this compound ( `COCCOC(=O)N1C(=O)[C@@]2(c3cc(C#CCC(C(=O)OC)C(=O)OC)ccc31)[C@H](C(=O)N1CCc3cc(OC)c(OC)cc3C1)[C@H]1C(=O)O[C@H](c3ccccc3)[C@H](c3ccccc3)N1[C@@H]2c1ccccc1OCCO` ) has z-score equal to 1.14

Given item `CCc1cccc(NC(=O)O[C@H]2[C@H](OC(=O)Nc3ccccc3-c3ccccc3)[C@H](OC(=O)Nc3ccccc3-c3ccccc3)[C@@H](OC)O[C@@H]2CO)c1` , the value recorded as its z-score is -0.398

The recorded z-score for entry COC(=O)[C@H](Cc1ccccc1)N1CC(C)(OC)O[C@@H](Cc2ccccc2)[C@H]1/C=C/C1CC1 (stereo partly drawn) equals -0.394

# compound O=C1C2C=CC(C(O)c3ccccn3)N(Nc3ccc([N+](=O)[O-])cc3)C2C(=O)N1c1ccccc1 (stereo not drawn) ; its z-score = -1.83

The compound identified as COC(=O)c1ccc(OC)c(/C=C\CC(OC(=O)c2ccncc2)c2ccccc2)c1 (stereo not drawn) registered its z-score at 0.202

Lab note: measured z-score of `CCCCCCc1nc(Cc2cc(OC)c(OC)c(OC)c2)c(C)c2c1[Si](C(C)C)(C(C)C)OC2` was 0.835

For record `COc1ccc(C(=O)Nc2ccc(CN3C(=O)[C@@]4(O[C@@H](CC(=O)N(CCO)Cc5ccccc5)[C@H]([Si](C)(C)c5ccc(OC)cc5)[C@H]4C)c4ccccc43)cc2)cc1` the listed z-score is 0.816

Kindly note the recorded z-score for `COCCOC(=O)N1C(=O)[C@@]2(c3cc(C#CC4(O)CCCCCC4)ccc31)[C@H](C(N)=O)[C@H]1C(=O)O[C@H](c3ccccc3)[C@H](c3ccccc3)N1[C@@H]2c1ccc(OCCO)cc1` , which is -0.69

Measured z-score, `COC(=O)[C@@]1(Cc2ccc(F)cc2)[C@H]2c3cc(C(=O)N4CCCC4)n(Cc4ccc(OC(F)(F)F)cc4)c3C[C@H]2CN1C(=O)c1ccccc1` : -1.35

Summary for this compound, `CC(=O)NCCCC[C@@H]1NC(=O)[C@H]2C[C@@H](C(=O)O)[C@@H](c3cccc(OCCO)c3)N2C1=O` : z-score is -0.55
